- protocol notes: Average animal weight in MCF-7 mouse xenograft model
- Format: in vivo
- cond: nude mice with MCF-7 xenograft, i.p., day 6
Measured Average Weight of Animals in Grams after Days 6, listed per entry for reference.
recorded endpoint: Average Weight of Animals in Grams after Days 6 (Grams)

compound="O=C(Cn1cnc2scc(-c3cccs3)c2c1=O)NN=Cc1ccc(Cl)cc1 [Compound 7]" value_reported=27.2
compound="CCOC(=O)Cn1cnc2scc(-c3cccs3)c2c1=O [Compound 3]" value_reported=28
compound="O=C(Cn1cnc2scc(-c3cccs3)c2c1=O)NN1C(=O)CSC1c1ccc(Cl)cc1 (stereo not drawn) [Compound 9]" value_reported=24.0
compound="Nc1cc(O)cc(=O)n1NC(=O)Cn1cnc2scc(-c3cccs3)c2c1=O [Compound 14]" value_reported=26.2
compound="NC1=CC(N)N(NC(=O)Cn2cnc3scc(-c4cccs4)c3c2=O)C=C1 (stereo not drawn) [Compound 15]" value_reported=25.8
compound="NNC(=O)Cn1cnc2scc(-c3cccs3)c2c1=O [Compound 4]" value_reported=24.0
compound="COc1cccc(C=NNC(=O)Cn2cnc3scc(-c4cccs4)c3c2=O)c1OC [Compound 6]" value_reported=23.6
compound="Cc1cc(=O)n(C(=O)Cn2cnc3scc(-c4cccs4)c3c2=O)[nH]1 [Compound 12]" value_reported=27.3
compound="O=C(Cn1cnc2scc(-c3cccs3)c2c1=O)NNC(=S)Nc1ccccc1 [Compound 10]" value_reported=24.9
